Every entry's value here was drawn from patent US20190127480A1.

# system_tested: T1, soluble heterodimeric hCD3ε/δ.mFc protein (human)
# T1 construct: also called soluble human CD3; soluble heterodimeric CD3 protein
# T1 chain 1: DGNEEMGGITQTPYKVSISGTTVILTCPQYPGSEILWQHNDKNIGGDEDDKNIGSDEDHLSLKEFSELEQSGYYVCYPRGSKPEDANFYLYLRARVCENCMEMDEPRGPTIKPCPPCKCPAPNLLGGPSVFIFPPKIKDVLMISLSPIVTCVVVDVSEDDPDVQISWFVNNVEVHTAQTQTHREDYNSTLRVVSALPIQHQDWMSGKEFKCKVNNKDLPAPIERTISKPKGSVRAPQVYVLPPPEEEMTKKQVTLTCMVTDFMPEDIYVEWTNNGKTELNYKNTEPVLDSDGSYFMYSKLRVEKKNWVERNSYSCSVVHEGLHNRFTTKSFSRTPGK
# T1 chain 2: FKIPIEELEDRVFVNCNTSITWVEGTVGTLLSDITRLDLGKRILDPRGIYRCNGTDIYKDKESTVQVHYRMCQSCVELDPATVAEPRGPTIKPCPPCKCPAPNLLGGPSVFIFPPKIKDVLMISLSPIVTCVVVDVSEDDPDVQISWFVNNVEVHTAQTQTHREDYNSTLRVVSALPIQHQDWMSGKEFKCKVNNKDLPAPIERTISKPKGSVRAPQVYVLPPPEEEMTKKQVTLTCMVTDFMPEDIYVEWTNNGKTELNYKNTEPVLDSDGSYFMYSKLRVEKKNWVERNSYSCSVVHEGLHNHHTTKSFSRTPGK
# assay_method_text: SPR MASS-1, 37 C, antigen-capture (hCD3ε/δ.mFc captured), antibody injected
Consider the following binders; for each one, report its Kd.
One number for each entry, in nM.

Observe how each entry below is paired with its result.
BSPSMA/CD3-1300 (bispecific antibody, IgG4, V domains shown, modified (chimeric) IgG4 Fc domain; also called PSMA-VH-11810 x CD3-VH-G13) VH 1: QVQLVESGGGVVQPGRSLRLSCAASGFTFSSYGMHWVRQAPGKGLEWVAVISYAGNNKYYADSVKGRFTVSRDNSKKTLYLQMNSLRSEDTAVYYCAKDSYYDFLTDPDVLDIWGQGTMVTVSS VH 2: EVQLVESGGGLVQPGRSLRLSCAASGFTFDDYSMHWVRQAPGKGLEWVSGISWNSGSIGYADSVKGRFTISRDNAKNSLYLQMNSLRAEDTALYYCAKYGSGYGKFYYYGLDVWGQGTTVTVSS VL: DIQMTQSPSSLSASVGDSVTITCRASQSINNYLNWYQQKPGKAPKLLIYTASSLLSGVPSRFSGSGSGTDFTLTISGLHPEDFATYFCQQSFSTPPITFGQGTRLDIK | 122
BSPSMA/CD3-1000 (bispecific antibody, IgG4, V domains shown, modified (chimeric) IgG4 Fc domain; also called PSMA-VH-11810 x CD3-VH-G10) VH 1: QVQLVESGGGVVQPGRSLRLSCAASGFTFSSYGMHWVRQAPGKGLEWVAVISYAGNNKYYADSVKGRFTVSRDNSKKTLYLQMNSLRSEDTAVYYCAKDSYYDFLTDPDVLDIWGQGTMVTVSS VH 2: EVQLVESGGGLVQPGRSLRLSCAASGFTFDDYSMHWVRQAPGKGLEWVSGISWNSGSKGYADSVKGRFTISRDNAKNSLYLQMNSLRAEDTALYYCAKYGSGYGKFYYYGLDVWGQGTTVTVSS VL: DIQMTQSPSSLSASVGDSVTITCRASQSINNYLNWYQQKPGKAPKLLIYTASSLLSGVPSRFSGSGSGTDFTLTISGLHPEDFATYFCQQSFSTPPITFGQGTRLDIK | 185

Turning now to a further record.
Task item: For BSPSMA/CD3-1400 (bispecific antibody, IgG4, V domains shown, modified (chimeric) IgG4 Fc domain; also called PSMA-VH-11810 x CD3-VH-G14) VH 1: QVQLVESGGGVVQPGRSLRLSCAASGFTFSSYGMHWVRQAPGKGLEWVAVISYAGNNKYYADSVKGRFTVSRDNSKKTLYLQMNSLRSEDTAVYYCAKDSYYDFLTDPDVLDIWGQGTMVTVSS VH 2: EVQLVESGGGLVQPGRSLRLSCAASGFTFDDYSMHWVRQAPGKGLEWVSGISWNSGSIGYADSVKGRFTISRDNAKNSLYLQMNSLRAEDTALYYCAKYGSGYGKFYHYGMDVWGQGTTVTVSS VL: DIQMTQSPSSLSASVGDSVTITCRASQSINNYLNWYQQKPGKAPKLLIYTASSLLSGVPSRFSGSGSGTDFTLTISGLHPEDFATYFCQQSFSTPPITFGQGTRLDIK , what is its reported Kd?
Reply: 53.3
